# Tested on: OVCAR-8 ovarian
# assay.details: NCI-60 one-dose screen, 48 h
# assay.setup: 10 µM unless noted
Compounds without any hit were thinned out: in the full panel of roughly 83,000, 20% have a hit. Active and inactive are the calls of the source. How the source made its calls: active means growth percent below 10; inactive means the rest.
Labels: active, inactive

# molecule, class
records = [
    ("C[C@@H](Oc1ccc(C(=O)NS(=O)(=O)C(C)(C)C)cc1C(F)(F)F)c1ccc(Oc2ccccc2)cn1", "inactive"),
    ("CN1CCN(c2nc(-c3csc(-c4cccs4)n3)cc3ccccc23)CC1", "inactive"),
    ("Cc1ccc2oc(=O)cc(-c3sc(N4CCCCC4)nc3-c3ccccc3)c2c1", "inactive"),
    ("COc1cc2ncnc(Nc3ccc(Oc4ccnc(C)c4)c(C)c3)c2cc1NC(=O)CC1CCSS1 (configuration not stated)", "inactive"),
    ("CC1=NN(c2ccc(S(=O)(=O)O)cc2Cl)C(=O)C1", "inactive"),
    ("Cc1c(C)c2c(c(C)c1NC(=O)CCCCCCC(=O)O)CCC(C)(CCCC(C)CCCC(C)CCCC(C)C)O2 (configuration not stated)", "inactive"),
    ("O=C(NC1=CC(=O)c2ccccc2C1=O)c1ccccc1", "inactive"),
    ("C=C(C)[C@@H]1CC[C@]2(/C=N/Nc3ccncc3)CC[C@]3(C)[C@H](CC[C@@H]4[C@@]5(C)CCCNC(C)(C)[C@@H]5CC[C@]43C)[C@@H]12", "inactive"),
    ("COC(=O)[C@]12CC[C@@H](C)[C@H](C)[C@@H]1C1=CC(=O)[C@@H]3[C@@]4(C)C[C@@H](O)[C@H](O)[C@@]5(C)COC(=C45)C[C@@]3(C)[C@]1(C)CC2", "inactive"),
    ("CCCCC[C@H]1CC=C2C(=O)C=C[C@@H]2CC=CCCCC(=O)O[C@@H](CCCCC)CC=C2C(=O)C=C[C@@H]2CC=CCCCC(=O)O[C@@H](CCCCC)CC=C2C(=O)C=C[C@@H]2CC=CCCCC(=O)O1", "inactive"),
    ("COc1ccc(-c2c(-c3nc4ccc(N5CCOCC5)cc4[nH]3)[nH]c(C)c2C(C)=O)cc1", "inactive"),
    ("O=[N+]([O-])c1ccc(/C=N\\Nc2ccccc2)cc1", "inactive"),
    ("COC(=O)[C@]12CC[C@@H](C)[C@H](C)[C@@H]1C1=CC[C@@H]3[C@@]4(C)C[C@@H](O)[C@H](O)[C@@](C)(CO)C4=CC[C@@]3(C)[C@]1(C)CC2", "active"),
    ("NC1(N)C=CC2=C(C=C1)C1(N)C3=C(C=CC(N)(N)C=C3)N2C2(N)C3=C(C=CC(N)(N)C=C3)N1C1=C2C=CC(N)(N)C=C1", "inactive"),
    ("COc1cccc(-c2nn(-c3ccccc3)cc2-c2ccnc(NCCNS(=O)(=O)c3ccc(C(F)(F)F)cc3)c2)c1", "inactive"),
    ("CC(C)(C)n1cc(-c2ccnc(NCCCNS(=O)(=O)c3ccc(Cl)cc3)c2)c(-c2cccc(F)c2)n1", "inactive"),
    ("Nc1c(C(=O)Nc2cccc3ccccc23)sc2nc3c(cc12)CCCC3", "inactive"),
    ("Cc1[c-]onc1C.Cc1[c-]onc1C.[Ag].[Ag].[NH-]S(=O)(=O)c1ccc(N=Nc2cc(N=Nc3ccc(S([NH-])(=O)=O)cc3)c3c(NC(=O)C(Cl)Cl)cccc3c2OC(=O)C(Cl)Cl)cc1", "inactive"),
    ("Cc1ccc(Cc2cnc(NC(=O)/C=C/c3cccc(C)c3)s2)cc1", "inactive"),
    ("O=C1NC(c2ccc(Cl)c(Cl)c2)=C/C1=C\\c1ccccc1", "inactive"),
    ("CC1(C)CC[C@]2(C(=O)Nc3ccccn3)CC[C@]3(C)C(=CC[C@@H]4[C@@]5(C)C/C(=C/c6ccncc6)C(=O)C(C)(C)[C@@H]5CC[C@]43C)[C@@H]2C1", "inactive"),
    ("C=C(C)[C@@H]1CC[C@]2(c3nnc(-c4ccncc4)o3)CC[C@]3(C)[C@H](CC[C@@H]4[C@@]5(C)CCC(=O)NC(C)(C)[C@@H]5CC[C@]43C)[C@@H]12", "inactive"),
    ("COc1cccc(-c2nn(-c3ccccc3)cc2-c2ccnc(NCCCNS(=O)(=O)c3ccc(Cl)cc3)c2)c1", "inactive"),
    ("Cn1cc(-c2csc(-c3cn(CCNC(=O)OC(C)(C)C)c4ccc(F)cc34)n2)c2cccnc21", "inactive"),
    ("CCC(=O)c1c(C)[nH]c(C)c1C", "inactive"),
    ("NC1=C(C/C(N)=N\\O)C(c2ccccc2Cl)c2c(ccc3ccccc23)O1 (configuration not stated)", "inactive"),
    ("CC(=O)OC[C@]12CC[C@@H](/C(C)=N/O)[C@@H]1[C@H]1CC[C@@H]3[C@@]4(C)CCCNC(C)(C)[C@@H]4CC[C@@]3(C)[C@]1(C)CC2", "inactive"),
    ("CC(C)=CCC/C(C)=C/CC/C(C)=C/CC/C(C)=C/CSC[C@H](NC(=O)CCCCCN1CCN(C)CC1)C(=O)NC1CCCCC1", "inactive"),
    ("CN1CCN(CCOc2ccc(-c3cnc4c(-c5cccc(F)c5)cnn4c3)cc2)CC1", "inactive"),
    ("Cc1cc(Cl)nc(N(CCNc2ccnc3cc(Cl)ccc23)Cc2ccco2)n1", "inactive"),
    ("C#Cc1cccc(NC(=O)C2CCCN(C(=O)CCl)C2)c1 (configuration not stated)", "inactive"),
    ("Cc1cc2nc3c4cc(N)ccc4n(CCN(C)C)c3nc2cc1C", "inactive"),
]
